Please respond with reported IC50 for every item in the list.
# ASSAY SYSTEM: UniProtKB P07333
# Sequence (P07333 whole entry, the tested form may be a part): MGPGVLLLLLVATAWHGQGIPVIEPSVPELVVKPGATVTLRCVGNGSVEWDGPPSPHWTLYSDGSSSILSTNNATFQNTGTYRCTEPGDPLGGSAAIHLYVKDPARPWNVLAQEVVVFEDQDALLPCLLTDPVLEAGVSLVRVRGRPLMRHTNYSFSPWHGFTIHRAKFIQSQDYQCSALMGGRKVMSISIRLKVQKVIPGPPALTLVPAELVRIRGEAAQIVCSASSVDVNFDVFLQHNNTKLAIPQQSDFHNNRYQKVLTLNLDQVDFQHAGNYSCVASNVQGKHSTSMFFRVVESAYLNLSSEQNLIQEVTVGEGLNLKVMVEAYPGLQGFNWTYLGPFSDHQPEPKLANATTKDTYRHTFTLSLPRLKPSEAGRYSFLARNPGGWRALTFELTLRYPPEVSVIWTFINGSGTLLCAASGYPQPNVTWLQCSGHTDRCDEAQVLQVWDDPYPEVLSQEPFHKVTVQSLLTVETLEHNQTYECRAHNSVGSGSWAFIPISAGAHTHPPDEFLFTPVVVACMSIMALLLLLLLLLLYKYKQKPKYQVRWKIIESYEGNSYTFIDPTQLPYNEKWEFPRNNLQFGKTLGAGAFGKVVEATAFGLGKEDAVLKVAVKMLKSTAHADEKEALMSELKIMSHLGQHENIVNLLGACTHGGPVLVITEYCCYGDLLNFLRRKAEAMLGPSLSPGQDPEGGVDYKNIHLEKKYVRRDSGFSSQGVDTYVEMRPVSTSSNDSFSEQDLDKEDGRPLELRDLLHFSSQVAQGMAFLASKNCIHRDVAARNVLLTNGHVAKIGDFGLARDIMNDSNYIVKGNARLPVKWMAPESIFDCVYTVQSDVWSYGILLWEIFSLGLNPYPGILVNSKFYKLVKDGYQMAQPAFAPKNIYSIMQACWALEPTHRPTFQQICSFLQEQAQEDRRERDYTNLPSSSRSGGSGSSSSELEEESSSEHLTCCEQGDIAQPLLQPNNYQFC
# ASSAY DETAILS: Displacement of kinase tracer 236 from recombinant human His-tagged CSF1R cytoplasmic domain (538 to 910 residues) expressed in baculovirus-infected insect cells measured after 5 hrs by TR-FRET based LanthaScreen assay

I'm hoping you can list IC50 for every compound here, please.
1. COc1cc(-n2c3c(c4ncnc(N)c42)CCC3)ccc1CC(=O)Nc1ccnn1C
2. Nc1ncnc2c3c(n(-c4ccc(NC(=O)Cc5ccnc(C(F)(F)F)c5)cc4)c12)COC3
3. Nc1ncnc2c3c(n(-c4ccc(CC(=O)Nc5ccc(C(F)(F)F)nc5)cc4)c12)CCC3

Resp:
1: > 200 nM; 2: 10 to 200 nM; 3: 10 to 200 nM

I'm hoping you can list IC50 for every compound here, please.
1. COc1cc(-n2c3c(c4ncnc(N)c42)COC3)ccc1NC(=O)Cn1ccc(C(F)(F)F)n1
2. COc1cc(-n2c3c(c4ncnc(N)c42)COC3)ccc1NC(=O)Cc1ccc(OC(F)(F)F)cc1

Resp:
1: 10 to 200 nM; 2: 6 nM
